Data origin, for the record: patent US8003357B2

System: EstFA (acidic esterase)
Experiment: Effect of cations and inhibitors on recombinant EstFA activity
Type: biochemical, Ferroplasma acidiphilum
Conditions: additive 10 mM
Description: The enzymes used for the tests were heterologously expressed in E. coli using genomic coding sequences obtained from Ferroplasma acidiphilum. The acidic enzymes according to the invention were expressed in E. coli using the genomiccoding sequence for the respective enzyme from Ferroplasma acidiphilum, which are described in detail below. […]
quantity-name: Activity (%) EstFA

{"smiles-str": "[Ca+2]", "quantity-name": "Activity (%) EstFA", "measured-result": 116.3}
{"smiles-str": "[Mg+2]", "quantity-name": "Activity (%) EstFA", "measured-result": 106.1}
{"smiles-str": "[Sr+2]", "quantity-name": "Activity (%) EstFA", "measured-result": 102.1}
{"smiles-str": "[Na+]", "quantity-name": "Activity (%) EstFA", "measured-result": 102.8}
{"smiles-str": "CCCCCCCCCCCCOS(=O)(=O)[O-].[Na+]", "quantity-name": "Activity (%) EstFA", "measured-result": 75.2}
{"smiles-str": "[Co+2]", "quantity-name": "Activity (%) EstFA", "measured-result": 55.2}
{"smiles-str": "O=C(O)CN(CCN(CC(=O)O)CC(=O)O)CC(=O)O", "quantity-name": "Activity (%) EstFA", "measured-result": 16.0}
{"smiles-str": "[Li+]", "quantity-name": "Activity (%) EstFA", "measured-result": 100.2}
{"smiles-str": "[Zn+2]", "quantity-name": "Activity (%) EstFA", "measured-result": 57.8}
{"smiles-str": "N", "quantity-name": "Activity (%) EstFA", "measured-result": 85.2}
{"smiles-str": "[K+]", "quantity-name": "Activity (%) EstFA", "measured-result": 108.5}

###

Test system: LigFA (acidic ligase)
Experiment: Effect of cations and inhibitors on recombinant LigFA activity
Type: biochemical, Ferroplasma acidiphilum
Conditions: additive 125 mM
If the reported Activity (%) LigFA equals or exceeds 90%, assign MET. If not, assign NOT MET.

{"smiles-str": "[Ca+2]", "discrete-label": "NOT MET"}
{"smiles-str": "O=C(O)CN(CCN(CC(=O)O)CC(=O)O)CC(=O)O", "discrete-label": "NOT MET"}
{"smiles-str": "N", "discrete-label": "MET"}
{"smiles-str": "[Na+]", "discrete-label": "MET"}
{"smiles-str": "[Li+]", "discrete-label": "MET"}
{"smiles-str": "[Zn+2]", "discrete-label": "NOT MET"}
{"smiles-str": "[Sr+2]", "discrete-label": "NOT MET"}
{"smiles-str": "[K+]", "discrete-label": "MET"}
{"smiles-str": "[Mg+2]", "discrete-label": "MET"}

###

Target: EstFA (Ferroplasma acidiphilum, UniProt Q2PCE5)
Sequence (Q2PCE5 entry or part of it): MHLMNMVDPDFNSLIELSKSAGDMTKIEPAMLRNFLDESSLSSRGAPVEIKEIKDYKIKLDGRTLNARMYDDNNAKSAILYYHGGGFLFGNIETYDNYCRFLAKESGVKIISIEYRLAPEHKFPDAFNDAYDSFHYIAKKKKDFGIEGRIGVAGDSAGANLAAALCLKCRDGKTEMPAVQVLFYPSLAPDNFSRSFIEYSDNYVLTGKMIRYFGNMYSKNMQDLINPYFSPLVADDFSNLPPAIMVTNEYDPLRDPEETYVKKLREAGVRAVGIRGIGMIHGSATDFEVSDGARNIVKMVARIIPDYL
Test: Enantioselectivity of EstFA towards chiral esters and lactones
Assay type: biochemical
Conditions: enantioselectivity
Returns: string. Value is condition met if measured E is below 4, and condition not met if it is greater than or equal to it.

{"molecule": "CC1(C)COC(=O)C1O (stereo not shown) [pantolactone]", "discrete-label": "condition met"}
{"molecule": "O=C1CCC(CO)O1 (stereo not shown) [dihydro-5-hydroxymethyl-2(3H)-furanone]", "discrete-label": "condition not met"}
{"molecule": "CCCC(=O)OCC1COC(C)(C)O1 (stereo not shown) [solketal butyrate]", "discrete-label": "condition not met"}
{"molecule": "CCCC(=O)OC(C)c1ccccc1 (stereo not shown) [1-phenyl ethylbutyrate]", "discrete-label": "condition met"}
{"molecule": "COC(=O)CC(C)O (stereo not shown) [methyl-3-hydroxybutyrate]", "discrete-label": "condition not met"}
{"molecule": "CC(=O)OC1CC(C)CCC1C(C)C (stereo not shown) [menthyl acetate]", "discrete-label": "condition not met"}
{"molecule": "COC(=O)[C@@H](N)Cc1c[nH]c2ccccc12 [tryptophane methylester]", "discrete-label": "condition met"}
{"molecule": "COC(=O)C(C)CO (stereo not shown) [methyl-3-hydroxy-2-methylpropionate]", "discrete-label": "condition not met"}
{"molecule": "COC(=O)C(C)O (stereo not shown) [methyl lactate]", "discrete-label": "condition met"}
{"molecule": "COC(=O)[C@H](C)N [alanine methylester]", "discrete-label": "condition met"}
